Hello, the source for this data is patent US10167284B2, in case you need it.

MEASURED ON: human muscarinic M4 receptor (Homo sapiens, UniProt P08173)
Construct: expressed in transfected cells
ASSAY NAME: Alphascreen Surefire phospho-ERK1/2 functional assay, M4
Assay type: cell-based
MEASUREMENT CONTEXT: CHO cells stably expressing human M4; phospho-ERK1/2; read-out: pEC50 M4 (converted)
METRIC: EC50 (nM)

P: CCOC(=O)N1CCC2(CC(N3CCC4(CC3)OC(=O)N(CC)C4CC)C2)C1 (single isomer, unassigned) [4-22 Isomer 4]
Q: CC(C)OC(=O)N1CCC2(CC(N3CCC4(CC3)CNC(=O)O4)C2)C1 (single isomer, unassigned) [4-4 Isomer 2]
R: CCOC(=O)N1CCC2(CC(N3CCC4(CC3)CC(=O)NC4Cc3ccccc3)C2)C1 (single isomer, unassigned) [3-8 Isomer 2]
-- ask # sort list by recorded EC50, greatest to least Answer by naming the labels in the order asked.
-- reply Q, R, P
(Q: 398 nM, R: 79.4 nM, P: 50.1 nM)

* * *

MEASURED ON: human muscarinic M4 receptor (Homo sapiens)
Construct: expressed in transfected cells
ASSAY NAME: Alphascreen Surefire phospho-ERK1/2 functional assay, M4
Format: cell-based
MEASUREMENT CONTEXT: CHO cells stably expressing human M4; Emax relative to ACh
METRIC: M4 % Emax cf. ACh

[
  {
    "COMPOUND": "CCCN1C(=O)OC2(CCN(C3CC4(CCN(C(=O)OCC)C4)C3)CC2)C1CC (single isomer, unassigned) [4-23 Isomer 2]",
    "DATA VALUE": "(3) %"
  }
]

* * *

MEASURED ON: human muscarinic M1 receptor (Homo sapiens)
Construct: expressed in transfected cells
Sequence (P11229 1-460): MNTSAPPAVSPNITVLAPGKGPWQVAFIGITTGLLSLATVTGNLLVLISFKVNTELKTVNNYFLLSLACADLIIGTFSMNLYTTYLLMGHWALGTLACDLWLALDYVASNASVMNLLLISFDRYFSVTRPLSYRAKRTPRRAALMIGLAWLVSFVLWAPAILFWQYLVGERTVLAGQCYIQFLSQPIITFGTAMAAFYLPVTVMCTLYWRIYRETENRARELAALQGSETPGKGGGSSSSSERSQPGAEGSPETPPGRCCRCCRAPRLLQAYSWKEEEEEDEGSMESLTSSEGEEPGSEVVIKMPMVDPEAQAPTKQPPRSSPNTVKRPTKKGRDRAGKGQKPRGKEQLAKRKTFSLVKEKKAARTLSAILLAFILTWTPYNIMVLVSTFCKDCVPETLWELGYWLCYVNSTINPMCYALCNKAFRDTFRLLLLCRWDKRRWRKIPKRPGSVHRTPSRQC
ASSAY NAME: Alphascreen Surefire phospho-ERK1/2 functional assay, M1
Type: cell-based
MEASUREMENT CONTEXT: CHO cells stably expressing human M1; Emax relative to ACh

[
  {
    "COMPOUND": "CCCN1C(=O)OC2(CCN(C3CC4(CCN(C(=O)OCC)C4)C3)CC2)C1CC (single isomer, unassigned) [4-23 Isomer 1]",
    "M1 % Emax cf. ACh": "(9) %"
  }
]

* * *

MEASURED ON: human muscarinic M1 receptor (Homo sapiens, UniProt P11229)
Construct: expressed in transfected cells
ASSAY NAME: Alphascreen Surefire phospho-ERK1/2 functional assay, M1
Type: cell-based
MEASUREMENT CONTEXT: CHO cells stably expressing human M1; Emax relative to ACh
METRIC: M1 % Emax cf. ACh

[
  {
    "MOLECULE": "CCOC(=O)N1CCC2(CC(N3CCC4(CC3)OC(=O)NC4CC)C2)C1 (single isomer, unassigned) [4-12 Isomer 2]",
    "DATA VALUE": "(0) %"
  }
]

* * *

MEASURED ON: human muscarinic M4 receptor (Homo sapiens, UniProt P08173)
Construct: expressed in transfected cells
Sequence (P08173 1-479): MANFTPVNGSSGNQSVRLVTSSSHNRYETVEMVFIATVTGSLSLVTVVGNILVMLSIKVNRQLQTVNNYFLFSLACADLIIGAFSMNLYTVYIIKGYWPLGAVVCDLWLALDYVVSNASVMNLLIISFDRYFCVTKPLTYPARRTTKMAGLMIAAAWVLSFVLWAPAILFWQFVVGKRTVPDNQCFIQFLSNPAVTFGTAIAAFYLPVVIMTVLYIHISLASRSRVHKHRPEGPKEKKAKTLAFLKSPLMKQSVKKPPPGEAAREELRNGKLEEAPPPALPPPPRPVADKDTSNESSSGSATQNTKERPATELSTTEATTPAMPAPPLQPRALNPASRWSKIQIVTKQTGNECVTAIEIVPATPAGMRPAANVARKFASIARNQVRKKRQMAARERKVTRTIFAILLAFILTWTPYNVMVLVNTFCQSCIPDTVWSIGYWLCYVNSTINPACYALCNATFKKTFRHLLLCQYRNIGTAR
ASSAY NAME: Alphascreen Surefire phospho-ERK1/2 functional assay, M4
Type: cell-based
MEASUREMENT CONTEXT: CHO, read-out: M4 % Emax cf. ACh, CHO cells stably expressing human M4; Emax relative to ACh
METRIC: Emax (%)

Consider the reported Emax for these compounds:
[
  {
    "COMPOUND": "CCOC(=O)N1CCC2(CC(N3CCC4(CC3)CC(=O)NC4CC)C2)C1 (single isomer, unassigned) [3-5 Isomer 2]",
    "MEASUREMENT UNIT": "%",
    "Emax": 108
  },
  {
    "COMPOUND": "CCOC(=O)N1CCC2(CC(N3CCC4(CC3)OC(=O)N(CCOC)C4(C)C)C2)C1 (single isomer, unassigned) [4-41 Isomer 2]",
    "MEASUREMENT UNIT": "%",
    "Emax": 86
  }
]

1: CCOC(=O)N1CCC2(CC(N3CCC4(CC3)CNC(=O)C4)C2)C1 (single isomer, unassigned) [3-2 Isomer 2]
2: CCOC(=O)N1CCC2(CC(N3CCC4(CC3)OC(=O)NC4C3CCC3)C2)C1 (single isomer, unassigned) [4-15 Isomer 1 (racemic)]
-- ask Select the item with the higher value of Emax from the options 1 and 2 listed. Your choice should be expressed through its label.
-- reply 2

1: CCOC(=O)N1CCC2(CC(N3CCC4(CC3)CC(=O)NN4C(C)C)C2)C1 (single isomer, unassigned) [6-5 Isomer 2]
2: CCOC(=O)N1CCC2(CC(N3CCC4(CC3)OC(=O)N(CC(C)C)C4(C)C)C2)C1 (single isomer, unassigned) [4-38 Isomer 1]
3: CCOC(=O)N1CC2(CCC(N3CCC4(CC3)OC(=O)N(CC)C4CC)C2)C1 (mixture of isomers) [8-2 mixture of diastereomers]
4: CCOC(=O)N1CC2(CC(N3CCC4(CC3)CNC(=O)C4)C2)C1 [Example 1-1]
-- ask I would appreciate it if you could sort these 4 compounds by Emax, starting from the smallest number. Answer by naming the labels in the order asked.
-- reply 1, 3, 4, 2
(1: 20%, 3: 30%, 4: 66%, 2: 97%)

* * *

MEASURED ON: human muscarinic M1 receptor (Homo sapiens)
Construct: expressed in transfected cells
Sequence (P11229 1-460): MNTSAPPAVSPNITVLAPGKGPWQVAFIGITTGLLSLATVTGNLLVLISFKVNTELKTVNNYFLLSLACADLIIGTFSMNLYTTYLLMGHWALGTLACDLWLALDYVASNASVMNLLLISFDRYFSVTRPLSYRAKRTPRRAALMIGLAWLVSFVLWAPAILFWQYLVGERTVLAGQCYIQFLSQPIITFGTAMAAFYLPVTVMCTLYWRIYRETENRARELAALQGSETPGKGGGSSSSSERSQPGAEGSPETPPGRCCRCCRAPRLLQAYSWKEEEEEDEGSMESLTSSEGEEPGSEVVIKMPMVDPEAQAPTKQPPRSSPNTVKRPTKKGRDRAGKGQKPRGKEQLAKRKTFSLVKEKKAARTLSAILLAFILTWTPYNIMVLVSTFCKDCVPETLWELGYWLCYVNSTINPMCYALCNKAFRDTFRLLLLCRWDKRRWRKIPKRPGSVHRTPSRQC
ASSAY NAME: Alphascreen Surefire phospho-ERK1/2 functional assay, M1
Type: cell-based
MEASUREMENT CONTEXT: CHO, read-out: M1 % Emax cf. ACh, CHO cells stably expressing human M1; Emax relative to ACh
METRIC: Emax (%)

A: CCOC(=O)N1CCC2(CC(N3CCC4(CC3)OC(=O)NC4Cc3ccccn3)C2)C1 (single isomer, unassigned) [4-19 Isomer 2 (racemic)]
B: CCOC(=O)N1CCC2(CC(N3CCC4(CC3)OC(=O)NC43CCCC3)C2)C1 (single isomer, unassigned) [4-31 Isomer 2]
C: CCOC(=O)N1CC2(CC(N3CCC4(CC3)OC(=O)N3CCCC34)C2)C1 (centres unmarked) [Example 2-5]
-- ask Sort the items above by Emax, starting with the smallest value. Answer by naming the labels in the order asked.
-- reply C, B, A

a: CCOC(=O)N1CCC2(CC(N3CCC4(CC3)CC(=O)NN4CC)C2)C1 (single isomer, unassigned) [6-2 Isomer 2]
b: CCOC(=O)N1CCC2(CC(N3CCC4(CC3)CN(C(C)C)C(=O)O4)C2)C1 (single isomer, unassigned) [4-8 Isomer 2]
-- ask Among a and b , whose measured Emax is the smaller figure? Your choice should be expressed through its label.
-- reply b
(b: 63%, a: 109%)

a: COC(=O)N1CCC2(CC(N3CCC4(CC3)CNC(=O)O4)C2)C1 (single isomer, unassigned) [4-1 Isomer 2]
b: CCOC(=O)N1CC2(CCC(N3CCC4(CC3)OC(=O)NC4CC)C2)C1 (mixture of isomers) [8-1 mixture of diastereomers]
-- ask Select the item with the higher value of Emax from the options a and b listed. Your choice should be expressed through its label.
-- reply a

I: CCOC(=O)N1CCC2(CC(N3CCC4(CC3)CNC(=O)N4)C2)C1 (single isomer, unassigned) [5-2 Isomer 2]
II: CCOC(=O)N1CCC2(CC(N3CCC4(CC3)CC(=O)N(CC)N4CC)C2)C1 (single isomer, unassigned) [6-8 Isomer 2]
-- ask Select the item with the higher value of Emax from the options I and II listed. Your choice should be expressed through its label.
-- reply I
